Biological target: UniProt:O75469
Assay: Microplate thermal shift assay (Thermofluor) of SXR with ligands, co-activator peptide SRC1-NR2 and co-repressor peptide NCoR-1
Conditions: SXR 6 μM, ligand 50 μM, co-activator peptide SRC1-NR2 100 μM; change from the receptor-ligand ΔTm
Property name: ΔΔTm SRC1-NR2
# output: bare number, no unit

**Query** Record request: ΔΔTm SRC1-NR2 value, item C[C@H](CCC(=O)O)[C@H]1CC[C@H]2[C@@H]3CC[C@@H]4C[C@H](O)CC[C@]4(C)[C@H]3CC[C@]12C
**Result** 2.9

**Query** // ΔΔTm SRC1-NR2 lookup, key: C[C@]12CCC(=O)C=C1CC[C@@H]1[C@@H]2[C@@H](O)C[C@@]2(C)[C@H]1CC[C@]2(O)C(=O)CO [Hydrocortisone]
**Result** 3.3

**Query** What does the data say about its ΔΔTm SRC1-NR2? Entry: C[C@]12CC[C@@H]3c4ccc(O)cc4CC[C@H]3[C@@H]1CC[C@@H]2O
**Result** 3.9

**Query** Consider the compound shown here: CC[C@H](C)C(=O)O[C@H]1C[C@@H](C)C=C2C=C[C@H](C)[C@H](CC[C@@H]3C[C@@H](O)CC(=O)O3)[C@H]21 What is its recorded ΔΔTm SRC1-NR2?
**Result** 3.0

**Query** Need ΔΔTm SRC1-NR2 of CC(=O)O[C@H]1C(=O)[C@@]2(C)[C@H]([C@H](OC(=O)c3ccccc3)[C@]3(O)C[C@H](OC(=O)[C@H](O)[C@@H](NC(=O)c4ccccc4)c4ccccc4)C(C)=C1C3(C)C)[C@]1(OC(C)=O)CO[C@@H]1C[C@@H]2O , thanks.
**Result** 2.5

**Query** Using the record for CCOC(=O)C(C)(C)Oc1ccc(Cl)cc1 [Clofibrate] , report its ΔΔTm SRC1-NR2.
**Result** 3.3

**Query** Returns the measured ΔΔTm SRC1-NR2 for the input compound. Input: CC(=O)[C@H]1CC[C@H]2[C@@H]3CCC4=CC(=O)CC[C@]4(C)[C@H]3[C@H](O)C[C@]12C [11-α-hydroxy-progesterone]
**Result** 4.6

**Query** // ΔΔTm SRC1-NR2 lookup, key: C[C@]12CC[C@@H](O)C[C@@H]1CC[C@@H]1[C@@H]2CC[C@]2(C)C(=O)CC[C@@H]12
**Result** 3.5

**Query** Please give the measured ΔΔTm SRC1-NR2 for this compound: C[C@]12C[C@H](O)[C@H]3[C@@H](CCC4=CC(=O)CC[C@@]43C)[C@@H]1CC[C@@H]2C(=O)CO
**Result** 2.7

---

Biological target: SXR (Homo sapiens, UniProt O75469)
Sequence (O75469 whole entry): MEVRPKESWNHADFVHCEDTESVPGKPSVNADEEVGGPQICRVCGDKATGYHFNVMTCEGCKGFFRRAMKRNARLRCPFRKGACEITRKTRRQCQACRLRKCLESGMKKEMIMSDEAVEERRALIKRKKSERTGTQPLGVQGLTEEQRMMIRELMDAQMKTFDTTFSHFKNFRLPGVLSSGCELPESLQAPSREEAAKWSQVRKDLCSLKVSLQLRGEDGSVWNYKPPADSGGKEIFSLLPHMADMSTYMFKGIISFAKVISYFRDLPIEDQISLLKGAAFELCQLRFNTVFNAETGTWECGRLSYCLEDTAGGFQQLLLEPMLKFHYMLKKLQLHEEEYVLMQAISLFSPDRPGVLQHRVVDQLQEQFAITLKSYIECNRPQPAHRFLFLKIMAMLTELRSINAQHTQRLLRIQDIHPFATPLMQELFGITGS
Assay: Microplate thermal shift assay (Thermofluor) of SXR with ligands, co-activator peptide SRC1-NR2 and co-repressor peptide NCoR-1
Details: computed from affinities derived from ΔΔTm with co-regulator peptides (FIG. 3)
Provide the recorded Probability Agonist (statistical probability of agonist state) for the entries that follow.
Quick one: just the number, no unit, thanks!

**Query** Provide value of Probability Agonist (statistical probability of agonist state) for this record tested with SXR (Homo sapiens, UniProt O75469): CC[C@H](C)C(=O)O[C@H]1C[C@@H](C)C=C2C=C[C@H](C)[C@H](CC[C@@H]3C[C@@H](O)CC(=O)O3)[C@H]21 [Lovastatin]
**Result** 0.85

**Query** Item: CCOC(=O)C(C)(C)Oc1ccc(Cl)cc1 [Clofibrate] Test system: SXR (Homo sapiens, UniProt O75469) Read-out: Probability Agonist (statistical probability of agonist state) Value: ?
**Result** 0.49

**Query** Query the reported Probability Agonist (statistical probability of agonist state) for SXR (Homo sapiens, UniProt O75469); item: CC(=O)[C@H]1CC[C@H]2[C@@H]3CCC4=CC(=O)CC[C@]4(C)[C@H]3[C@H](O)C[C@]12C [11-α-hydroxy-progesterone]
**Result** 0.96

**Query** Item: C[C@]12CCC(=O)C=C1CC[C@@H]1[C@@H]2[C@@H](O)C[C@@]2(C)[C@H]1CC[C@]2(O)C(=O)CO [Hydrocortisone] Test system: SXR (Homo sapiens, UniProt O75469) Read-out: Probability Agonist (statistical probability of agonist state) Value: ?
**Result** 0.44
